Every entry's value here was drawn from ChEMBL document CHEMBL1909046.

assay: DRUGMATRIX: Sigma2 radioligand binding (ligand: [3H] Ifenprodil); type: cell membranes, Rattus norvegicus, Wistar, Brain, Membrane; conditions: Not Active = under 50% inhibition at 10 µM
Recorded metric: IC50

Look over these answered cases.
INSERT INTO assay_data (compound, readout_value) VALUES
  ('NC1CCN(c2nc3c(cc2F)c(=O)c(C(=O)O)cn3-c2ccc(F)cc2F)C1 (stereo unspecified)', 'Not Active'),
  ('Brc1c(NC2=NCCN2)ccc2nccnc12', 'Not Active'),
  ('CCN(CC)CCOCCC1=CCC2CC1C2(C)C (stereo unspecified)', 'Not Active'),
  ('C[C@@H]1CC[C@@]2(OC1)O[C@H]1[C@@H](O)[C@H]3[C@@H]4CC[C@H]5C[C@@H](O[C@@H]6O[C@H](CO)[C@H](O[C@@H]7O[C@H](CO)C(O)[C@H](O[C@@H]8OC[C@@H](O)[C@H](O)[C@H]8O)[C@H]7O[C@@H]7O[C@H](CO)[C@H](O)[C@H](O[C@@H]8O[C@H](CO)[C@@H](O)[C@H](O)[C@H]8O)[C@H]7O)[C@H](O)[C@H]6O)[C@H](O)C[C@]5(C)[C@H]4CC[C@]3(C)[C@H]1[C@@H]2C (stereo partly specified)', 'Not Active');

For this compound ( CC(C)NCC(O)c1ccc(O)c(O)c1 (stereo unspecified) ), measured IC50 is Not Active

For this compound ( `CS(=O)(=O)c1ccc([C@@H](O)[C@@H](CO)NC(=O)C(Cl)Cl)cc1` ), measured IC50 is Not Active

For this compound ( `CCN(CC)CC(=O)Nc1c(C)cccc1C` ), measured IC50 is Not Active

For this compound ( `O=C(Nc1ccc(Br)cc1)c1cc(Br)cc(Br)c1O` ), measured IC50 is Not Active

For this compound ( CC(C)(C)NC(=O)[C@H]1CC[C@H]2[C@@H]3CC[C@H]4NC(=O)C=C[C@]4(C)[C@H]3CC[C@]12C [FINASTERIDE] ), measured IC50 is Not Active

For this compound ( `OC(CCCN1CCCCC1)(c1ccccc1)c1ccccc1` ), measured IC50 is Not Active

For this compound ( `CC(C)NNC(=O)c1ccncc1` ), measured IC50 is Not Active

For this compound ( CNC1(c2ccccc2Cl)CCCCC1=O (stereo unspecified) ), measured IC50 is Not Active

For this compound ( Cc1cc2c(OCC(CNC(C)(C)C)OC(=O)c3ccccc3)cccc2[nH]1 (stereo unspecified) ), measured IC50 is Not Active

For this compound ( `N=C(N)NC(=O)Cc1c(Cl)cccc1Cl` ), measured IC50 is Not Active

For this compound ( `CCCCNc1ccc(C(=O)OCCN(C)C)cc1` ), measured IC50 is Not Active

For this compound ( O.O.O.O.O.O.[Cl-].[Cl-].[Sr+2] [STRONTIUM CHLORIDE HEXAHYDRATE] ), measured IC50 is Not Active

----------
molecular target: Mitogen-activated protein kinase 1 (Homo sapiens); experiment: DRUGMATRIX: Protein Serine/Threonine Kinase, ERK2 enzyme inhibition (substrate: Myelin Basic Protein); set-up: species or system Escherichia coli; details: Not Active = under 50% inhibition at 10 µM
Sequence (P28482 whole entry): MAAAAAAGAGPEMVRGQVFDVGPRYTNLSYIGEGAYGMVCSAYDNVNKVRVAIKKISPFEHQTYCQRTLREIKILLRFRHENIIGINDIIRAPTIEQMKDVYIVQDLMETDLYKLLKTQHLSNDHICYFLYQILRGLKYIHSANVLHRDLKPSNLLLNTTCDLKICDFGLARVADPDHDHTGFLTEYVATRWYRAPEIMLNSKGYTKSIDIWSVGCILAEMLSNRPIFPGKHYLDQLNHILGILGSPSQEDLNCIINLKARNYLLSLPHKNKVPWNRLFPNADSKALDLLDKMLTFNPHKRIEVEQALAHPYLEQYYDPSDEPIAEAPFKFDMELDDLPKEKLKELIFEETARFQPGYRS
Recorded metric: IC50

INSERT INTO measurements (molecule, recorded_metric, readout_value) VALUES
  ('C[C@]12C=CC(=O)C=C1CC[C@@H]1[C@@H]2[C@@H](O)C[C@@]2(C)[C@H]1CC[C@]2(O)C(=O)CO', 'IC50', 'Not Active'),
  ('C[C@@H]1CC[C@@]2(OC1)O[C@H]1[C@@H](O)[C@H]3[C@@H]4CC[C@H]5C[C@@H](O[C@@H]6O[C@H](CO)[C@H](O[C@@H]7O[C@H](CO)C(O)[C@H](O[C@@H]8OC[C@@H](O)[C@H](O)[C@H]8O)[C@H]7O[C@@H]7O[C@H](CO)[C@H](O)[C@H](O[C@@H]8O[C@H](CO)[C@@H](O)[C@H](O)[C@H]8O)[C@H]7O)[C@H](O)[C@H]6O)[C@H](O)C[C@]5(C)[C@H]4CC[C@]3(C)[C@H]1[C@@H]2C (some centres not stated)', 'IC50', 'Not Active');

----------
molecular target: Muscarinic acetylcholine receptor M5 (Homo sapiens); type: cell membranes, CHO-K1, Membrane; conditions: read-out: IC50; further: in other assays of this panel Not Active means under 50% inhibition at 10 µM
Sequence (P08912 whole entry): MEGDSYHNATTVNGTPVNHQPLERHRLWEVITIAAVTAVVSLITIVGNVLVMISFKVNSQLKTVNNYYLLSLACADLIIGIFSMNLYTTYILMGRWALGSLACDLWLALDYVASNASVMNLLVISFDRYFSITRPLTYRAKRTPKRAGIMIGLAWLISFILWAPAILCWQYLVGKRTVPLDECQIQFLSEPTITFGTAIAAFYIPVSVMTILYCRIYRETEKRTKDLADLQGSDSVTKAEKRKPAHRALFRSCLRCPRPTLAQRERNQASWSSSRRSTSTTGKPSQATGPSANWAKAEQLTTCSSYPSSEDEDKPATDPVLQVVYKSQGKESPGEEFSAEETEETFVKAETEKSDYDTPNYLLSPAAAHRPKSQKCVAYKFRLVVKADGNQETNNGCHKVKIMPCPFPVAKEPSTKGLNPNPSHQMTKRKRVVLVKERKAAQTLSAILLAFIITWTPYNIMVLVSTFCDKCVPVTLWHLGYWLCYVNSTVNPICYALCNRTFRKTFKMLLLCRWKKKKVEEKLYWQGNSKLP
Reported IC50 values for a set of compounds
Express your answer in nM, writing the number without its unit.

Look over these answered cases.
INSERT INTO results (compound, readout_value) VALUES
  ('CN[C@H]1CC[C@@H](c2ccc(Cl)c(Cl)c2)c2ccccc21 [SERTRALINE]', 507),
  ('OC(CCCN1CCCCC1)(c1ccccc1)c1ccccc1 [DIPHENIDOL]', 1190),
  ('CN(C)CC[C@@H](c1ccc(Cl)cc1)c1ccccn1 [DEXCHLORPHENIRAMINE]', 1040);

Attention now turns to another entry.
For this compound ( CCN(CC)CCOc1ccc(/C(=C(/Cl)c2ccccc2)c2ccccc2)cc1 [ENCLOMIPHENE] ), measured IC50 is 1770

----------
test: DRUGMATRIX: GABAA, Flunitrazepam, Central radioligand binding (ligand: [3H] Flunitrazepam); type: cell membranes, Rattus norvegicus, Wistar, Brain, Membrane; details: Not Active = under 50% inhibition at 10 µM
Recorded metric: Ki

INSERT INTO measurements (molecule, readout_value) VALUES
  ('C[C@@H]1CC[C@@]2(OC1)O[C@H]1[C@@H](O)[C@H]3[C@@H]4CC[C@H]5C[C@@H](O[C@@H]6O[C@H](CO)[C@H](O[C@@H]7O[C@H](CO)C(O)[C@H](O[C@@H]8OC[C@@H](O)[C@H](O)[C@H]8O)[C@H]7O[C@@H]7O[C@H](CO)[C@H](O)[C@H](O[C@@H]8O[C@H](CO)[C@@H](O)[C@H](O)[C@H]8O)[C@H]7O)[C@H](O)[C@H]6O)[C@H](O)C[C@]5(C)[C@H]4CC[C@]3(C)[C@H]1[C@@H]2C (stereo partly drawn)', 'Not Active'),
  ('COc1cc(N)c(Cl)cc1C(=O)NC1CCN(CCCOc2ccc(F)cc2)CC1OC (stereo not drawn) [CISAPRIDE]', 'Not Active'),
  ('Cc1c(OCC(F)(F)F)ccnc1C[S+]([O-])c1nc2ccccc2[nH]1 (stereo not drawn)', 'Not Active');

----------
target: Sigma non-opioid intracellular receptor 1 (Homo sapiens, UniProt Q99720); experiment: DRUGMATRIX: Sigma1 radioligand binding (ligand: [3H] Haloperidol); assay type: cell membranes, Jurkat, Membrane; conditions: Not Active = under 50% inhibition at 10 µM; read-out: IC50
Sequence (Q99720 whole entry): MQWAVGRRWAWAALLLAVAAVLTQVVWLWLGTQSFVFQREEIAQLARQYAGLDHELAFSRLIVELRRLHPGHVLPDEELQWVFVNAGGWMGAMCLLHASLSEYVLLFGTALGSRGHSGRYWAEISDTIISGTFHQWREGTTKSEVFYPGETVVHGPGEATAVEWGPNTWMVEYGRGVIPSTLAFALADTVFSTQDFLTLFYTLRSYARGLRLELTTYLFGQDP
Recorded metric: log10 of IC50 (log10 of the value in nM)
Each number you see is log10 of IC50, and the unit inside the log is nM.

INSERT INTO results (compound, readout_value) VALUES
  ('CCCOc1ccc(C(=O)OCCN(CC)CC)cc1N', 2.38),
  ('CN(C)CC[C@@H](c1ccc(Cl)cc1)c1ccccn1', 3.22),
  ('Clc1ccccc1CN1CCc2sccc2C1', 2.63),
  ('CC(=O)[C@H]1[C@H](C#N)C[C@H]2[C@@H]3CC=C4C[C@@H](O)CC[C@]4(C)[C@H]3CC[C@@]21C', 4.33),
  ('CCCNCC(O)COc1ccccc1C(=O)CCc1ccccc1 (centres undefined)', 3.42);

For this compound ( COc1ccc2cc3[n+](cc2c1OC)CCc1cc2c(cc1-3)OCO2.[Cl-] [BERBERINE CHLORIDE] ), measured log10 of IC50 is 3.11

For this compound ( `CCCCNc1ccc(C(=O)OCCN(C)C)cc1` ), measured log10 of IC50 is 3.22

For this compound ( `Fc1ccc(C(c2ccc(F)cc2)N2CCN(C/C=C/c3ccccc3)CC2)cc1` ), measured log10 of IC50 is 1.40

For this compound ( `CN(C/C=C/C#CC(C)(C)C)Cc1cccc2ccccc12` ), measured log10 of IC50 is 2.75

----------
Target: Glucocorticoid receptor (Homo sapiens, UniProt P04150); further: in other assays of this panel Not Active means under 50% inhibition at 10 µM
Sequence (P04150 whole entry): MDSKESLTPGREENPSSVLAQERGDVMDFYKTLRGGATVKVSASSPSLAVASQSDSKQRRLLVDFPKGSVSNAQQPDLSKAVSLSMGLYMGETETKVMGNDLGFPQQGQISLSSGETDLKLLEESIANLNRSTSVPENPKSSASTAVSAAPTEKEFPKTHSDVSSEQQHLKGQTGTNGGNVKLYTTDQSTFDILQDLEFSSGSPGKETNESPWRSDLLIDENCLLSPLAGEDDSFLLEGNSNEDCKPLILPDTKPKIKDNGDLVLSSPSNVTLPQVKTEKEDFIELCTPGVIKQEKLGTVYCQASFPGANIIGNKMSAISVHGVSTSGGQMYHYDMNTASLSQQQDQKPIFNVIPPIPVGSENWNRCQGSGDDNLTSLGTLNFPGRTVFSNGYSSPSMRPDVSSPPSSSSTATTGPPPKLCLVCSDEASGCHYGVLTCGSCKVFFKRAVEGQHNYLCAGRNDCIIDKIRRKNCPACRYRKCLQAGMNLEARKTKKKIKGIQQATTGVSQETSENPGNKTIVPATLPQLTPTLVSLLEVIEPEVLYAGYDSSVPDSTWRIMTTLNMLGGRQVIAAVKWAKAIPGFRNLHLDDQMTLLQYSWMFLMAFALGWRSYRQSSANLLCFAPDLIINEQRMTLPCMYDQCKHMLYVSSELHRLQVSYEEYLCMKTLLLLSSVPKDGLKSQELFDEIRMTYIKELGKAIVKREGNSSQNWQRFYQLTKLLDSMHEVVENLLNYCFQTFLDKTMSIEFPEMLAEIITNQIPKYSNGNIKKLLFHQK
Experiment: biochemical
Recorded metric: IC50 (nM)
Express your answer in nM, writing the number without its unit.

Look over these answered cases.
INSERT INTO assay_data (compound, experimental_target, unit_annotation, readout_value) VALUES
  ('C#CC1(O)CC[C@H]2[C@@H]3CCC4=CC(=O)CC[C@@H]4[C@H]3CC[C@@]21CC (stereo not given in full)', 'Glucocorticoid receptor (Homo sapiens, UniProt P04150)', 'nM', 149),
  ('CC(=O)[C@@]1(O)CC[C@H]2[C@@H]3CCC4=CC(=O)CC[C@]4(C)[C@H]3CC[C@@]21C [HYDROXYPROGESTERONE]', 'Glucocorticoid receptor (Homo sapiens, UniProt P04150)', 'nM', 51),
  ('C[C@@H]1C[C@H]2[C@@H]3CCC4=CC(=O)C=C[C@]4(C)[C@@]3(F)[C@@H](O)C[C@]2(C)[C@H]1C(=O)CO', 'Glucocorticoid receptor (Homo sapiens, UniProt P04150)', 'nM', 2.57),
  ('CCC(=O)O[C@]1(C(=O)CCl)[C@@H](C)C[C@H]2[C@@H]3CCC4=CC(=O)C=C[C@]4(C)[C@@]3(F)[C@@H](O)C[C@@]21C [CLOBETASOL PROPIONATE]', 'Glucocorticoid receptor (Homo sapiens, UniProt P04150)', 'nM', 1.46);

For this compound ( `CC(=O)[C@H]1[C@H](C#N)C[C@H]2[C@@H]3CC=C4C[C@@H](O)CC[C@]4(C)[C@H]3CC[C@@]21C` ), measured IC50 is 14000
